Test system: Phospho-ERK1/2 in DLD1 cells
assay-notes: Phospho-ERK1/2 expression inhibition in DLD1 cells
Type: cell-based
test-parameters: Homo sapiens, DLD-1, 4 hours, read-out: DLD1 pERK IC50
pIC50: −log10 of the molar value.
quantity-measured: pIC50

>  <molecule>
COC(=O)N1CC[C@](OC)(c2ccc3nccc(N[C@H](C)c4cccc(C(F)F)c4F)c3c2)C1 [Compound 89]

>  <pIC50>
< 6.30

$$$$
>  <molecule>
CC(=O)N[C@@H]1CCN(c2ccc3nccc(N[C@H](C)c4cccc(C(F)F)c4F)c3c2)C1 [Compound 11]

>  <pIC50>
6.30 to 6.82

$$$$
>  <molecule>
Cc1c([C@@H](C)Nc2ccnc3ccc(N4CCC5(CCN(C)C5=O)CC4)cc23)cccc1C(F)(F)F [Compound 23]

>  <pIC50>
< 6.30

$$$$
>  <molecule>
CC(=O)N1CCC(O)(c2ccc3nccc(N[C@H](C)c4cccc(C(F)F)c4F)c3c2)CC1 [Compound 40]

>  <pIC50>
6.30 to 6.82

$$$$
>  <molecule>
Cc1c([C@@H](C)Nc2ccnc3ccc(N4CCN(C(=O)C5CCOC5)CC4)cc23)cccc1C(F)(F)F (stereo partly shown) [Compound 6]

>  <pIC50>
6.30 to 6.82

$$$$
>  <molecule>
CC(C)C(=O)N1CCC(F)(c2ccc3nccc(N[C@H](C)c4cccc(C(F)F)c4F)c3c2)CC1 [Compound 81]

>  <pIC50>
≥ 6.82

$$$$

With those in mind, consider the next molecule.
Query: Read off the recorded pIC50 for C[C@@H](Nc1ccnc2ccc(N3CCN(C(=O)[C@@H]4CCOC4)CC3)cc12)c1cccc(C(F)F)c1F [Compound 15]
Reply: ≥ 6.82

----------
System: Phospho-ERK1/2 in DLD1 cells
assay-notes: Phospho-ERK1/2 expression inhibition in DLD1 cells
Format: cell-based
test-parameters: Homo sapiens, DLD-1, 4 hours, read-out: DLD1 pERK IC50
pIC50: −log10 of the molar value.
quantity-measured: pIC50

Use the examples below as a reference point.
>  <compound>
CC(=O)N1CCN(c2ccc3nccc(N[C@H](C)c4cccc(C(F)F)c4F)c3c2)CC1

>  <pIC50>
≥ 6.82

$$$$
>  <compound>
Cc1cc(N[C@H](C)c2cccc(C(F)(F)F)c2C)c2cc(N3CCN(C(=O)C4CCOC4)CC3)ccc2n1 (stereo partly shown)

>  <pIC50>
< 6.30

$$$$

Query: Item "COC1(c2ccc3nccc(N[C@H](C)c4cccc(C(F)(F)F)c4C)c3c2)CCN(C(=O)C(C)C)CC1" : provide pIC50
Reply: < 6.30

Query: Complete the entry with pIC50 for "Cc1c([C@@H](C)Nc2ccnc3ccc(N4CC5(CCN(C)C5=O)C4)cc23)cccc1C(F)(F)F"
Reply: < 6.30

----------
Tested on: Phospho-ERK1/2 in DLD1 cells
assay-notes: Phospho-ERK1/2 expression inhibition in DLD1 cells
Format: cell-based
test-parameters: Homo sapiens, DLD-1, 4 hours, read-out: DLD1 pERK IC50
quantity-measured: IC50

>  <molecule>
Cc1c([C@@H](C)Nc2ccnc3ccc(N4CC5CC(C4)N5)cc23)cccc1C(F)(F)F

>  <IC50>
> 500 nM

$$$$

Query: Report the value of IC50 obtained on Phospho-ERK1/2 in DLD1 cells for "Cc1c([C@@H](C)Nc2ccnc3ccc(N4CCN(CC(F)(F)F)CC4)cc23)cccc1C(F)(F)F" .
Reply: > 500 nM

----------
Tested on: Phospho-ERK1/2 in DLD1 cells
assay-notes: Phospho-ERK1/2 expression inhibition in DLD1 cells
Format: cell-based
test-parameters: Homo sapiens, DLD-1, 4 hours, read-out: DLD1 pERK IC50
pIC50: −log10 of the molar value.
# reported pIC50; entries follow

For orientation, consider the following solved cases.
>  <compound>
C[C@@H](Nc1ccnc2ccc(N3CC[C@H](N)C3)cc12)c1cccc(C(F)F)c1F [Compound 18]

>  <pIC50>
< 6.30

$$$$
>  <compound>
Cc1c([C@@H](C)Nc2ccnc3ccc(N4CCn5ncnc5C4)cc23)cccc1C(F)(F)F [Compound 25]

>  <pIC50>
6.30 to 6.82

$$$$
>  <compound>
Cc1c([C@@H](C)Nc2c(C#N)cnc3ccc(N4CCN(C(=O)C5CCOC5)CC4)cc23)cccc1C(F)(F)F (stereo partly shown) [Compound 3]

>  <pIC50>
< 6.30

$$$$

Query: // fetch pIC50 given entry COc1cc2nccc(N[C@H](C)c3cccc(C(F)F)c3F)c2cc1C1(OC)CCN(C(C)=O)CC1 [Compound 73]
Reply: < 6.30

Query: Determine its reported pIC50: CC(=O)N1CCN(c2ccc3nccc(N[C@H](C)c4cccc(C(F)(F)F)c4C)c3c2)CC1 [Compound 27]
Reply: < 6.30

----------
Tested on: Phospho-ERK1/2 in DLD1 cells
assay-notes: Phospho-ERK1/2 expression inhibition in DLD1 cells
Format: cell-based
test-parameters: Homo sapiens, DLD-1, 4 hours, read-out: DLD1 pERK IC50
pIC50: −log10 of the molar value.
quantity-measured: pIC50

// below: answered compounds
>  <compound>
Cc1c([C@@H](C)Nc2ccnc3ccc(N4CCN(C(=O)C5COC5)CC4)cc23)cccc1C(F)(F)F [Compound 29]

>  <target-desc>
Phospho-ERK1/2 in DLD1 cells

>  <quantity-measured>
pIC50

>  <reading>
< 6.30

$$$$
>  <compound>
C[C@@H](Nc1ccnc2ccc(N3CC[C@H](O)C3)cc12)c1cccc(C(F)F)c1F [Compound 43]

>  <target-desc>
Phospho-ERK1/2 in DLD1 cells

>  <quantity-measured>
pIC50

>  <reading>
6.30 to 6.82

$$$$
>  <compound>
Cc1c([C@@H](C)Nc2ccnc3ccc(N4CCN(C(=O)C(C)C)CC4)cc23)cccc1C(F)(F)F [Compound 46]

>  <target-desc>
Phospho-ERK1/2 in DLD1 cells

>  <quantity-measured>
pIC50

>  <reading>
6.30 to 6.82

$$$$
>  <compound>
COC(=O)N1CC[C@@](OC)(c2ccc3nccc(N[C@H](C)c4cccc(C(F)F)c4F)c3c2)C1 [Compound 90]

>  <target-desc>
Phospho-ERK1/2 in DLD1 cells

>  <quantity-measured>
pIC50

>  <reading>
< 6.30

$$$$

Below: the item to evaluate.
Query: Name the recorded pIC50 of the item CO[C@@]1(c2ccc3nccc(N[C@H](C)c4cccc(C(F)F)c4F)c3c2)CCN(C(=O)C(C)C)C1 [Compound 91] in your answer.
Reply: < 6.30
